System: Daudi Cell Culture
procedureText: Compound primary screening in Daudi cell culture
Format: cell-based
condition: Homo sapiens, 168 h; Daudi cells, 1250 cells per well, reads on Day 7
Procedure: Compound Primary Screening 1. Materials and Supplies […] A 96 well u-bottom plate was prepared by writing the experiment number, plate number, date and initials in the top right corner of the plate lid. […] Cell cultures were counted to obtain the density of cells per ml, and the culture viability. […] Once the media volume was calculated, the appropriate volume of media was pipetted in 25 mL increments into the 250 mL bottle using a 25 mL serological pipette. […]
property: EC50

Ask: Consider the compound CC(C)OC(=O)Nc1ccc(-c2ncc(-c3ccc(CNC(=O)c4ccccc4)cc3S(=O)(=O)NC(C)(C)C)s2)cc1 [Compound P4] . State its measured EC50.
Result: > 10 µM

Ask: Consider the compound CCOC(=O)Nc1ccc(-c2ncc(-c3ccc(NC(C)=O)cc3S(=O)(=O)NC(C)(C)C)s2)cc1 [Compound G3] . State its measured EC50.
Result: < 1 µM
